Provenance of the data: patent US8759579B2

# STUDY SYSTEM: pregnane X receptor (PXR) (Homo sapiens, UniProt O75469)
# Construct: expressed in transfected cells; host or cells: HEP G2
# Sequence (O75469 1-434): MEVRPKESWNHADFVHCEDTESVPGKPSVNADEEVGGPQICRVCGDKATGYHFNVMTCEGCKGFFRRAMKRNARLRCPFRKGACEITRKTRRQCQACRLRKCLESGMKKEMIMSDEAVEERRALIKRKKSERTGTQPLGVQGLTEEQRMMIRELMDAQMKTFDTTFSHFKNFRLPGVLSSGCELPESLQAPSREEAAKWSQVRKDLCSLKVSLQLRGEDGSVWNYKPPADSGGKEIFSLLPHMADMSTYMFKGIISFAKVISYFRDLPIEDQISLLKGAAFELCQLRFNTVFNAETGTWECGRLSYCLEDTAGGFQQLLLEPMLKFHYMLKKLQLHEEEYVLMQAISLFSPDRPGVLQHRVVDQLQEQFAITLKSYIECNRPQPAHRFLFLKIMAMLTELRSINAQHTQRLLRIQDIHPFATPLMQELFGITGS
# Sequence (P19793 1-462 partner): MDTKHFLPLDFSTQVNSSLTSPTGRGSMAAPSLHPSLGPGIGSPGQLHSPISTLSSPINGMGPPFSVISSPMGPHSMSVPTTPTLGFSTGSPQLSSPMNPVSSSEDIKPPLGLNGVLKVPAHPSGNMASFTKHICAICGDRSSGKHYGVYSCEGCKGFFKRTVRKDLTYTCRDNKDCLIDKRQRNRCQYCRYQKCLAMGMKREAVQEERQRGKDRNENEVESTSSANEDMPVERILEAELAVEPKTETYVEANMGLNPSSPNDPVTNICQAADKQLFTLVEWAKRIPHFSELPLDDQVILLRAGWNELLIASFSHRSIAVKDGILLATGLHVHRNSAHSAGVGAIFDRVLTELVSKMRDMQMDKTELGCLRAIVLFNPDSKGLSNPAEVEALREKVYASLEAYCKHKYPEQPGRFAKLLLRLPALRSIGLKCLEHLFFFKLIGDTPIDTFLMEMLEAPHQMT
# ASSAY TEXT: PXR assay (CYP3A4-SEAP transactivation assay, PCSTA)
# Type: cell-based
# CONDITION DETAILS: 10 uM
MEASURED ATTRIBUTE: PXR % Activation @ 10 uM (%)

O=S(=O)([N-][C@H]1C[C@@](c2cc(F)ccc2F)(S(=O)(=O)c2ccc(Cl)cc2)C1)C(F)(F)F.[K+] :: 64.4

[1] CC1(NS(=O)(=O)C(F)(F)F)CC(c2cc(F)ccc2F)(S(=O)(=O)c2ccc(C(F)(F)F)cc2)C1 (stereo not shown)
[2] O=S(=O)(N[C@H]1C[C@@](c2cc(F)ccc2F)(S(=O)(=O)c2ccc(OC(F)(F)F)cc2)C1)C(F)(F)F
[3] O=S(=O)(NC1CC(c2cc(F)ccc2F)(S(=O)(=O)c2ccc(F)cc2)C1)C(F)(F)F (stereo not shown)
Rank the 3 compounds: largest PXR % Activation @ 10 uM first, smallest last. List the labels according to the requested ordering.
3, 1, 2

====

# STUDY SYSTEM: pregnane X receptor (PXR) (Homo sapiens)
# Construct: expressed in transfected cells; host or cells: HEP G2
# ASSAY TEXT: PXR assay (CYP3A4-SEAP transactivation assay, PCSTA)
# Format: cell-based
# CONDITION DETAILS: 10 uM
MEASURED ATTRIBUTE: PXR % Activation @ 10 uM (%)

Here's what some known entries look like.
O=C(O)CN([C@H]1C[C@@](c2cc(F)ccc2F)(S(=O)(=O)c2ccc(Cl)cc2)C1)S(=O)(=O)C(F)(F)F :: 100
O=S(=O)(N[C@H]1C[C@@](c2cc(F)ccc2F)(S(=O)(=O)c2ccc(Cl)cc2)C1)C(F)(F)F :: 55.5
O=C(O)CCCN([C@H]1C[C@@](c2cc(F)ccc2F)(S(=O)(=O)c2ccc(Cl)cc2)C1)S(=O)(=O)C(F)(F)F :: 76.7
C[C@]1(NS(=O)(=O)C(F)(F)F)C[C@@](c2cc(F)ccc2F)(S(=O)(=O)c2ccc(Cl)cc2)C1 :: 74.6
O=S(=O)(NC1CC(c2cc(F)ccc2F)(S(=O)(=O)c2ccc(C(F)(F)F)cc2)C1)C(F)(F)F (stereo not shown) :: 64.4

[P] O=S(=O)(NC1CC(c2cc(F)ccc2F)(S(=O)(=O)c2ccc(F)c(F)c2)C1)C(F)(F)F (stereo not shown)
[Q] N#Cc1ccc(S(=O)(=O)C2(c3cc(F)ccc3F)CC(NS(=O)(=O)C(F)(F)F)C2)cc1 (stereo not shown)
Parameter metric = PXR % Activation @ 10 uM. Return the lower-valued option from P and Q . I would appreciate it if you answered with the label of your choice.
Q
